- targetSystem: T1, Fc-MST-HN (human, UniProt P01857-1 104-330 = IgG part, M252Y; S254T; T256E; H433K; N434F)
- T1 construct: domain: Fc fragment; MST-HN = M252Y S254T T256E H433K N434F (EU numbering); also called IgG1-Fc MST-HN
- protocol: SPR (IBIS MX96), FcγR captured on sensor, Fc fragment titrated, pH 7.4, equilibrium 1:1 fit
Listed below: Kd values for each entry.

- human FcγRIIIb-NA1 (receptor, UniProt O75015 17-200, looked up, C-terminal biotin, In-house, C-terminally biotinylated; captured on a streptavidin sensor; also called hFcγRIIIb-NA1) GMRTEDLPKAVVFLEPQWYRVLEKDSVTLKCQGAYSPEDNSTQWFHNENLISSQASSYFIDAATVDDSGEYRCQTNLSTLSDPVQLEVHVGWLLLQAPRWVFKEEDPIHLRCHSWKNTALHKVTYLQNGKDRKYFHHNSDFHIPKATLKDSGSYFCRGLVGSKNVSSETVNITITQGLAVSTIS: > 2000 nM
- human FcγRIIIb-NA2 (receptor, UniProt O75015 17-200, looked up, C-terminal biotin, In-house, C-terminally biotinylated; captured on a streptavidin sensor; also called hFcγRIIIb-NA2) GMRTEDLPKAVVFLEPQWYSVLEKDSVTLKCQGAYSPEDNSTQWFHNESLISSQASSYFIDAATVNDSGEYRCQTNLSTLSDPVQLEVHIGWLLLQAPRWVFKEEDPIHLRCHSWKNTALHKVTYLQNGKDRKYFHHNSDFHIPKATLKDSGSYFCRGLVGSKNVSSETVNITITQGLAVSTIS: > 2000 nM

# Kd of human FcγRIIb (receptor, UniProt P31994 43-217, looked up, C-terminal biotin, Bought, C-terminally biotinylated; captured on a streptavidin sensor; also called hFcγRIIb) TPAAPPKAVLKLEPQWINVLQEDSVTLTCRGTHSPESDSIQWFHNGNLIPTHTQPSYRFKANNNDSGEYTCQTGQTSLSDPVHLTVLSEWLVLQTPHLEFQEGETIVLRCHSWKDKPLVKVTFFQNGKSKKFSRSDPNFSIPQANHSHSGDYHCTGNIGYTLYSSKPVTITVQAP = > 2000 nM
